From: ChEMBL document CHEMBL1136119

TARGET_UNDER_TEST: Inhibitor of nuclear factor kappa-B kinase subunit beta (Homo sapiens, UniProt O14920)
Sequence (O14920 whole entry): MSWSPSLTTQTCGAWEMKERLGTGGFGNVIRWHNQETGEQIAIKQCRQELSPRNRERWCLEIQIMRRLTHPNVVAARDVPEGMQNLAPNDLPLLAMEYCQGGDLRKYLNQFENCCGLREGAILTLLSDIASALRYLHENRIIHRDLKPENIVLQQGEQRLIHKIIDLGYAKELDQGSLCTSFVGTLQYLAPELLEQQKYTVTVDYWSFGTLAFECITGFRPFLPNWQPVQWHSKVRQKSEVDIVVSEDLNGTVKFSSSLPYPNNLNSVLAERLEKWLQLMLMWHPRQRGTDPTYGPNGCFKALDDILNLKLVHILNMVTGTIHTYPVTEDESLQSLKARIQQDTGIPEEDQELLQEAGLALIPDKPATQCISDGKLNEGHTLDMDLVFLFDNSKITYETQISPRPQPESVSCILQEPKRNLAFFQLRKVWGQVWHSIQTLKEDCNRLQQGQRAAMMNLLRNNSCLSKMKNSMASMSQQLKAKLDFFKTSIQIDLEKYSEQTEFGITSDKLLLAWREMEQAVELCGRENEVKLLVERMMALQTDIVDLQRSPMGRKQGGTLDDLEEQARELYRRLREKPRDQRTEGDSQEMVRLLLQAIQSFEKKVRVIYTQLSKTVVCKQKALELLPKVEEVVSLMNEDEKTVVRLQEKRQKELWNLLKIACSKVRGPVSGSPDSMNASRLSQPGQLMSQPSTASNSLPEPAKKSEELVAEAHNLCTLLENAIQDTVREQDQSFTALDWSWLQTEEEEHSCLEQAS
PROTOCOL_DETAILS: Inhibitory activity against IkappaB kinase(IKK) isolated from HeLa cells activated with recombinant […] in an ELISA phosphorylation assay.
PROPERTY_NAME: IC50 (nM)

INSERT INTO measurements (smiles_notation, value_prefix, reading) VALUES
  ('O=C(Nc1cc(Cl)cc2c1[nH]c1cnccc12)c1cccnc1', '=', 100),
  ('O=S(=O)(Nc1cc(Cl)cc2c1[nH]c1cnccc12)c1ccccc1', '>', 20000),
  ('CN(C)c1cc(Cl)cc2c3cc[nH]cc-3nc12', '=', 1800),
  ('O=C(CCCO)Nc1cc(Cl)cc2c3cc[nH]cc-3nc12', '>', 20000),
  ('CS(=O)(=O)Nc1cc(Cl)cc2c3cc[nH]cc-3nc12', '=', 8300),
  ('Nc1cc(Cl)cc2c3cc[nH]cc-3nc12', '=', 1300);
